measured.target: TLR8 (Homo sapiens)
Sequence (Q9NR97 27-1041): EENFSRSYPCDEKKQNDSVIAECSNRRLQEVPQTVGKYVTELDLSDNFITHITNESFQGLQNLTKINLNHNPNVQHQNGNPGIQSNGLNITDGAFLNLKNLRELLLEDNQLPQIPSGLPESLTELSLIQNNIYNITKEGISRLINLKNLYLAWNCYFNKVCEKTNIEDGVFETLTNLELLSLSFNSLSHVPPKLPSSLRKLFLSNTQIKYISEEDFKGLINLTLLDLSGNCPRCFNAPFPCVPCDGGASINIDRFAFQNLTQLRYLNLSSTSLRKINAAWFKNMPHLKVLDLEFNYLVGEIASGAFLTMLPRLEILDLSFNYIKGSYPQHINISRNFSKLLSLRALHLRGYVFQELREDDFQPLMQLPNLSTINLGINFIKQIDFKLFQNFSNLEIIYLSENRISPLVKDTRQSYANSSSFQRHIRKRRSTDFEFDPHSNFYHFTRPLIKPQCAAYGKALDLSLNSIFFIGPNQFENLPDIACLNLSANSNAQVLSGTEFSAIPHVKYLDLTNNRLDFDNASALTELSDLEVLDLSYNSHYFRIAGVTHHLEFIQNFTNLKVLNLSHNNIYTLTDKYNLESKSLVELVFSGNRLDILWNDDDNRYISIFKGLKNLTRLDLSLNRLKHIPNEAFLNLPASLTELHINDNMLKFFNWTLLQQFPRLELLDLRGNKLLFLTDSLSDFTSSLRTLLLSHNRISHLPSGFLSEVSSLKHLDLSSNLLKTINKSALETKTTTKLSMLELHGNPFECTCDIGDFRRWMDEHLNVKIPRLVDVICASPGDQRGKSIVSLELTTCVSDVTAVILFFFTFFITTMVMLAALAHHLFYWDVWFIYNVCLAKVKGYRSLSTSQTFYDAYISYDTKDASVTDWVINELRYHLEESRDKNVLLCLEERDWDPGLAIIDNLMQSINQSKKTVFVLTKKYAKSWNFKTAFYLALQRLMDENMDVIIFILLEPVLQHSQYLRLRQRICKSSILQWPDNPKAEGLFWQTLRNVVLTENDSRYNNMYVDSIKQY
assay.text: HEK-TLR8 NF-κB-luciferase reporter, R848 or Motolimod stimulation (potentiation or inhibition)
Assay type: cell-based
Set-up: expressed in transfected cells; host or cells: 293XLhTLR8 (HEK293)
conditions.used: HEK-TLR8; 500 nM ASO; fold increase relative to R848 without ASO (Alharbi et al., 2020)
Description: In such examples, potentiation of TLR8 activity can be identified by observation of an overall increased TLR8 response of the cell population, or a higher proportion of cells having TLR8-positive activity as compared to a negative control condition in which cells are treated with TLR8 agonist in the absence of the oligonucleotide (or in the presence of an appropriate control non-potentiating agent). […] TLR8 activity can also be analysed by measuring cytokine levels, for example by ELISA. […]
In the oligonucleotide strings, read from the 5' end, every base follows the letter of its sugar. An asterisk marks phosphorothioate; unmarked linkages are phosphodiester. Other units and linkages are bracketed, terminal groups are in braces. A string of capitals states the bases alone. d = 2'-deoxy (DNA); m = 2'-O-methyl
measured.quantity: TLR8-500 nM: averaged NF-κB-Luciferase relative to R848
Show the value, then the unit it is measured in.

These solved cases illustrate the format of a correct answer.
[
  {
    "substance": "mA*mA*mA*mA*mG*A*T*T*A*T*C*T*T*C*T*mU*mU*mU*mA*mA (AAAAGATTATCTTCTUUUAA; sugars from the 5' end m5 d10 m5, all phosphorothioate, methylation of C not given here) [[CDKN2B-AS1]2133]",
    "result": "4.68 fold"
  },
  {
    "substance": "mG*mA*mU*mG*mG*T*T*C*C*A*G*T*C*C*C*mU*mC*mU*mU*mC (GAUGGTTCCAGTCCCUCUUC; antisense; sugars from the 5' end m5 d10 m5, all phosphorothioate, methylation of C not given here) [[LINC-PINT]1497.1]",
    "result": "1.01 fold"
  },
  {
    "substance": "mG*mU*mC*mC*mC*A*T*C*C*C*T*T*C*T*G*mC*mU*mG*mC*mC (GUCCCATCCCTTCTGCUGCC; antisense; sugars from the 5' end m5 d10 m5, all phosphorothioate, methylation of C not given here) [[LINC-PINT]102]",
    "result": "5.07 fold"
  }
]

Alright, here's another substance for you.
Note to self: TLR8-500 nM: averaged NF-κB-Luciferase relative to R848 recorded for mA*mA*mA*mG*mC*A*G*T*C*T*C*C*A*T*G*mU*mC*mC*mC*mA (mA*mA*mA*mG*mC*dA*dG*dT*dC*dT*dC*dC*dA*dT*dG*mU*mC*mC*mC*mA; antisense) [[CDKN2B-AS1]2237] was 3.38 fold
